# System: IL 1-induced release of neutral protease from rabbit articular chondrocytes
# protocol.description: inhibition of IL 1-induced release of neutral protease from rabbit articular chondrocytes (azocoll assay)
# Format: cell-based, rabbit (New Zealand White)
# run.parameters: Oryctolagus cuniculus, Chondrocyte; 10 μM; compound added 10 min before human IL 1; 24 h stimulation; read-out: % Inhibition (I.S.D.)
inhibition at 10 µM values by entry

compound	recorded.measurement
CN1CCc2nc3ccc(Cl)cc3c(Cl)c2C1 [Example 6]	13%
CN1CCc2nc3ccc(Cl)cc3c(Oc3ccccc3)c2C1 [Example 18]	9%
CN1CCc2nc3cc(Cl)ccc3c(Nc3ccccc3)c2C1 [Example 14]	14%
C=CCCCN1CCc2nc3cc(Cl)ccc3c(Cl)c2C1 [Example 4]	12%
CN1CCc2nc3ccc(Cl)cc3c(Nc3ccccc3)c2C1 [Example 19]	23%
CN1CCc2nc3cc(Cl)ccc3c(Oc3ccccc3)c2C1 [Example 15]	22%

// switching to the query compound
Prompt: Can you look up the measured inhibition at 10 µM of CN1CCc2nc3cc(Cl)ccc3c(Cl)c2C1 [Example 5] for me?
Response: 26%
